Entries and their Adenosine A1 receptor ECR* values follow.
experimental_target: human adenosine A1 receptor (Homo sapiens)
Construct: expressed in transfected cells; host or cells: Chinese hamster ovary (CHO) cells with CRE/SPAP/HYG reporter elements
experiment: Reporter gene assay (CRE/SPAP) in CHO cells, agonist potency relative to NECA, adenosine A1 receptor
Type: cell-based
Set-up: key: equipotent concentration ratio, NECA = 1
conditions: ECR = equipotent concentration ratio relative to NECA = 1, inhibition of forskolin-stimulated SPAP production

These recorded examples may help you get a feel for the data.
{"columns": ["smiles_record", "result"],
 "data": [
  ["CCC(CC)Nc1nc(Cl)nc2c1ncn2[C@@H]1O[C@H](c2nc(C3CC3)no2)[C@@H](O)[C@H]1O.O=CO.O=CO", 25.47],
  ["Cc1cc([C@H]2O[C@@H](n3cnc4c(Nc5ccc(Cl)cc5F)ncnc43)[C@H](O)[C@@H]2O)on1", 2.8],
  ["CCc1nnc([C@H]2O[C@@H](n3cnc4c(NC(C)C)ncnc43)[C@H](O)[C@@H]2O)o1", 0.15]
]}

I'd like to know its Adenosine A1 receptor ECR*. The compound in question is CC(C)(C)c1nnc([C@H]2O[C@@H](n3cnc4c(Nc5ccc(Cl)cc5F)ncnc43)[C@H](O)[C@@H]2O)[nH]1
9.8

====

Entries and their Adenosine A1 receptor ECR* values follow.
experimental_target: human adenosine A1 receptor (Homo sapiens, UniProt P30542)
Construct: expressed in transfected cells; host or cells: Chinese hamster ovary (CHO) cells with CRE/SPAP/HYG reporter elements
Sequence (P30542 whole entry): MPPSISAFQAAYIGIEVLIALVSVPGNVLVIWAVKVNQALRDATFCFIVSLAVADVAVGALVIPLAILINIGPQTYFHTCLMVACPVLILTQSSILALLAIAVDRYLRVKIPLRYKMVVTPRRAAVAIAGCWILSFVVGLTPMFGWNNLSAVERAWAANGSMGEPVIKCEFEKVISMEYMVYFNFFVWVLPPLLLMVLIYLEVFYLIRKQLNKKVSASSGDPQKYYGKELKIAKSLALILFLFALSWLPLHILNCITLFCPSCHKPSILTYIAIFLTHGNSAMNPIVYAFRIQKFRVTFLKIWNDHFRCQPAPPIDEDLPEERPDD
experiment: Reporter gene assay (CRE/SPAP) in CHO cells, agonist potency relative to NECA, adenosine A1 receptor
Format: cell-based
Parameters: key: equipotent concentration ratio, NECA = 1
conditions: ECR = equipotent concentration ratio relative to NECA = 1, inhibition of forskolin-stimulated SPAP production

These recorded examples may help you get a feel for the data.
{"columns": ["smiles_record", "result"],
 "data": [
  ["CCNS(=O)(=O)CCNc1ncnc2c1ncn2[C@@H]1O[C@H](c2nnc(C(C)(C)C)o2)[C@@H](O)[C@H]1O", 4.19],
  ["CCCc1cc([C@H]2O[C@@H](n3cnc4c(Nc5ccc(Cl)cc5F)ncnc43)[C@H](O)[C@@H]2O)on1", 24.9],
  ["CCOC(=O)N1CCC(Nc2ncnc3c2ncn3[C@@H]2O[C@H](c3nnc(C(F)(F)F)o3)[C@@H](O)[C@H]2O)CC1", 18.1]
]}

Moving on to the next compound.
I'd like to know its Adenosine A1 receptor ECR*. The compound in question is O[C@@H]1[C@H](O)[C@@H](c2nc(C3CC3)no2)O[C@H]1n1cnc2c(N[C@H]3CCC[C@@H]3O)ncnc21
5.15

====

experimental_target: human adenosine A3 receptor (Homo sapiens, UniProt P0DMS8)
Construct: expressed in transfected cells; host or cells: Chinese hamster ovary (CHO) cells with CRE/SPAP/HYG reporter elements
Sequence (P0DMS8 whole entry): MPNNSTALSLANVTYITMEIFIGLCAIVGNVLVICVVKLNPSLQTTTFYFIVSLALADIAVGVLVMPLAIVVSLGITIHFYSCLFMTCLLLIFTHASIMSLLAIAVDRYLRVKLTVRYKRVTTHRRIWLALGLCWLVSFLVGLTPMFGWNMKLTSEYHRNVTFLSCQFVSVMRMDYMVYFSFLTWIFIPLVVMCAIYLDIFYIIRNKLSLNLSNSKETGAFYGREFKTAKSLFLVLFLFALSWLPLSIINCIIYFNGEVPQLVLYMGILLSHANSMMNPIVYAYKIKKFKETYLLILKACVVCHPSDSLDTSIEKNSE
experiment: Reporter gene assay (CRE/SPAP) in CHO cells, agonist potency relative to NECA, adenosine A3 receptor
Assay type: cell-based
Set-up: key: equipotent concentration ratio, NECA = 1
conditions: ECR = equipotent concentration ratio relative to NECA = 1, inhibition of forskolin-stimulated SPAP production
value_kind: Adenosine A3 receptor ECR*

{"columns": ["smiles_record", "Adenosine A3 receptor ECR*"],
 "data": [
  ["COCc1noc([C@H]2O[C@@H](n3cnc4c(NC5CCCC5)ncnc43)[C@H](O)[C@@H]2O)n1", ">199"],
  ["Cc1nnc([C@H]2O[C@@H](n3cnc4c(N[C@H]5CCC[C@@H]5O)ncnc43)[C@H](O)[C@@H]2O)o1", ">22.4"]
]}

Moving on to the next molecule.
I'd like to know its Adenosine A3 receptor ECR*. The molecule in question is Cc1cnc([C@H]2O[C@@H](n3cnc4c(Nc5ccc(F)cc5Cl)nc(Cl)nc43)[C@H](O)[C@@H]2O)o1
>74.1
